systemTested: T1, Human CD3eg linker (human)
T1 construct: Single chain: epsilon and gamma subunits of human CD3 joined by a 29-mer linker, Flag-tag at the C-terminus; also called recombinant human CD3
T1 chain: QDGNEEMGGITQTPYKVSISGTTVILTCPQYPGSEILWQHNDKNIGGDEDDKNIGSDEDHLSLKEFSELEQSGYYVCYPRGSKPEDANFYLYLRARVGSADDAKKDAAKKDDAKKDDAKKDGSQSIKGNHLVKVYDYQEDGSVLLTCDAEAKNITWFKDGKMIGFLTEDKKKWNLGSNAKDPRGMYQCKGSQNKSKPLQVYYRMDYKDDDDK
experimentalDetails: Biacore SPR, vs template H183/L072
true means recorded fold change of affinity is 0.5 fold or above; false means it is below 0.5 fold.

Solved cases below.
binder="H183/L072 VH K52W (antibody, name in Kabat numbering, V domains shown) VH: QVQLVESGGGLVQPGRSLRLSCAASGFTFSNAWMHWVRQAPGKGLEWVAQIWDKGNAYAAYYAPSVKGRFTISRDDSKNSIYLQMNSLKTEDTAVYYCHYVHYASASTVLPAFGVDAWGQGTTVTVSS VL: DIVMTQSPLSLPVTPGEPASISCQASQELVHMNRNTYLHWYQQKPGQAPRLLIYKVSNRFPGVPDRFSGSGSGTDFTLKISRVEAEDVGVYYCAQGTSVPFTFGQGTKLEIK" classname=false
binder="H183/L072 VH A98I (antibody, name in Kabat numbering, V domains shown) VH: QVQLVESGGGLVQPGRSLRLSCAASGFTFSNAWMHWVRQAPGKGLEWVAQIKDKGNAYAAYYAPSVKGRFTISRDDSKNSIYLQMNSLKTEDTAVYYCHYVHYISASTVLPAFGVDAWGQGTTVTVSS VL: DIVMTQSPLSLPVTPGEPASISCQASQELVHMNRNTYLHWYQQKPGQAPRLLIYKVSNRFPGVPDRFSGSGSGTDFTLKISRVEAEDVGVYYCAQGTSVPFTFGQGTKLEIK" classname=true
binder="H183/L072 VH D52aN (antibody, name in Kabat numbering, V domains shown) VH: QVQLVESGGGLVQPGRSLRLSCAASGFTFSNAWMHWVRQAPGKGLEWVAQIKNKGNAYAAYYAPSVKGRFTISRDDSKNSIYLQMNSLKTEDTAVYYCHYVHYASASTVLPAFGVDAWGQGTTVTVSS VL: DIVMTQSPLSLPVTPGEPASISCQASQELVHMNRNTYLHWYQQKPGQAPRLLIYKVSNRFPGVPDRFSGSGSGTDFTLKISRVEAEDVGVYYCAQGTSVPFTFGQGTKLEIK" classname=false
binder="H183/L072 VH K52V (antibody, name in Kabat numbering, V domains shown) VH: QVQLVESGGGLVQPGRSLRLSCAASGFTFSNAWMHWVRQAPGKGLEWVAQIVDKGNAYAAYYAPSVKGRFTISRDDSKNSIYLQMNSLKTEDTAVYYCHYVHYASASTVLPAFGVDAWGQGTTVTVSS VL: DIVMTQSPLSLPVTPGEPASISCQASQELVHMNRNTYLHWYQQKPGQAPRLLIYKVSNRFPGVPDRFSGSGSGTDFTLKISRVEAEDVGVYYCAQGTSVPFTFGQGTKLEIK" classname=false
binder="H183/L072 VH I51A (antibody, name in Kabat numbering, V domains shown) VH: QVQLVESGGGLVQPGRSLRLSCAASGFTFSNAWMHWVRQAPGKGLEWVAQAKDKGNAYAAYYAPSVKGRFTISRDDSKNSIYLQMNSLKTEDTAVYYCHYVHYASASTVLPAFGVDAWGQGTTVTVSS VL: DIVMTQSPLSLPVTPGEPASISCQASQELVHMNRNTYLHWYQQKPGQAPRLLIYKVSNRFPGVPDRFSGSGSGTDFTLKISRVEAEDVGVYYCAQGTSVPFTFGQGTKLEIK" classname=false

Is fold change of affinity for H183/L072 VH S99L (antibody, name in Kabat numbering, V domains shown) VH: QVQLVESGGGLVQPGRSLRLSCAASGFTFSNAWMHWVRQAPGKGLEWVAQIKDKGNAYAAYYAPSVKGRFTISRDDSKNSIYLQMNSLKTEDTAVYYCHYVHYALASTVLPAFGVDAWGQGTTVTVSS VL: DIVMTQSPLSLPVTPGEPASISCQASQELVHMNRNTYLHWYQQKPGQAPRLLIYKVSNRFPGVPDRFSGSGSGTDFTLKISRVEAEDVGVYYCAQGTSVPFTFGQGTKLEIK at or above 0.5 fold?
true

Say whether H183/L072 VH A54D (antibody, name in Kabat numbering, V domains shown) VH: QVQLVESGGGLVQPGRSLRLSCAASGFTFSNAWMHWVRQAPGKGLEWVAQIKDKGNDYAAYYAPSVKGRFTISRDDSKNSIYLQMNSLKTEDTAVYYCHYVHYASASTVLPAFGVDAWGQGTTVTVSS VL: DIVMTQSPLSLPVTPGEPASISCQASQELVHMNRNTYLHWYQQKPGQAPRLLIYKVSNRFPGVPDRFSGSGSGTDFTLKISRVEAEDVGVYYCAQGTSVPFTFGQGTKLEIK shows fold change of affinity of 0.5 fold or more.
true

Textbook exercise: given the entry H183/L072 VH N31Y (antibody, name in Kabat numbering, V domains shown) VH: QVQLVESGGGLVQPGRSLRLSCAASGFTFSYAWMHWVRQAPGKGLEWVAQIKDKGNAYAAYYAPSVKGRFTISRDDSKNSIYLQMNSLKTEDTAVYYCHYVHYASASTVLPAFGVDAWGQGTTVTVSS VL: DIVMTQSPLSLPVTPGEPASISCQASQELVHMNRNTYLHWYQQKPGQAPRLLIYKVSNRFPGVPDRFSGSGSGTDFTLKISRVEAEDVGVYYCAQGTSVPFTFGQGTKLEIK , state whether its fold change of affinity is greater than or equal to 0.5 fold.
false

Could you verify whether the entry H183/L072 VH S30V (antibody, name in Kabat numbering, V domains shown) VH: QVQLVESGGGLVQPGRSLRLSCAASGFTFVNAWMHWVRQAPGKGLEWVAQIKDKGNAYAAYYAPSVKGRFTISRDDSKNSIYLQMNSLKTEDTAVYYCHYVHYASASTVLPAFGVDAWGQGTTVTVSS VL: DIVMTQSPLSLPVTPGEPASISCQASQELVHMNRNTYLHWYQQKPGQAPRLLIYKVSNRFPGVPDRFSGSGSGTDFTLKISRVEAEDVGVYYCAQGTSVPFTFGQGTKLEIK shows fold change of affinity of no less than 0.5 fold?
true
